For each entry below, report its cell viability value.
# System: Vero E6
# Method: cell viability relative to DMSO; higher = less toxic
# Condition notes: 72 h; 10 nM
Write the value in % as a bare number.

// cell viability value for CC(C)(C)CC(=O)Nc1c(F)cc(C(=O)/N=c2\sccn2COP(=O)(O)O)cc1F : 104

// cell viability value for CC(C)NC[C@@H](C(=O)N1CCN(c2ncnc3c2[C@H](C)C[C@H]3O)CC1)c1ccc(Cl)cc1 [GDC-0068] : 102

// cell viability value for NNc1nncc2ccccc12 [hydralazine] : 101

// cell viability value for O=C1NC(=O)c2c1c1c3ccccc3n3c1c1c2c2ccccc2n1C1CCC3O1 : 94.7

// cell viability value for Cc1cc(C)c(/C=C2\C(=O)Nc3ccccc32)[nH]1 [semaxanib] : 102

----------
# System: Vero E6
# Method: cell viability relative to DMSO; higher = less toxic
# Condition notes: 72 h; 1 nM
For each entry below, report its cell viability value.
Don't forget the unit after the number, please.

// cell viability value for c1ccc(-c2n[nH]c3c2oc2ccccc23)cc1 : 91%

// cell viability value for Oc1ccnc2cc(Cl)ccc12 : 102%

// cell viability value for CN(C)C(=O)CCSC(SCCC(=O)O)c1cccc(/C=C/c2ccc3ccc(Cl)cc3n2)c1 (stereo unspecified) : 98.4%

// cell viability value for CSC[C@H](N)C(=O)O : 92.8%

// cell viability value for C[N+](C)(C)CCCCCCCCCC[N+](C)(C)C : 101%

// cell viability value for Cc1cc(O)cc(C)c1Cl : 101%

----------
# Test system: Caco-2
# Method: cell viability relative to DMSO; higher = less toxic
# Condition notes: 72 h; 1000 nM
For each entry below, report its cell viability value.
Write the value in % as a bare number.

// cell viability value for CC(=O)c1cnc2ccc(-c3cc(Cl)c(O)c(Cl)c3)nc2c1N[C@H]1CC[C@H](CN(C)C)CC1 : 34.8

// cell viability value for Cc1cc(CC(=O)O)n(C)c1C(=O)c1ccc(Cl)cc1 [zomepirac] : 74.4

// cell viability value for CNC1CC(N)C(O)C(OC2OC(CO)C(O)C3OC4(OC(C(N)CO)C(O)C(O)C4O)OC23)C1O (centres undefined) : 108

// cell viability value for CC(C(=O)O)c1ccc(CC2CCCC2=O)cc1 (centres undefined) : 88.1

// cell viability value for C[C@H]1C[C@@H]2[C@H]([C@@H](O)C[C@@]3(C)[C@H]2CC[C@]3(O)C(=O)CO)[C@@]2(C)C=CC(=O)C=C12 : 99.3

// cell viability value for O=C(O)CCCC[C@@H]1SC[C@@H]2NC(=O)N[C@@H]21 : 95.1

// cell viability value for O=C1c2ccccc2-n2c1nc1ccccc1c2=O : 104

// cell viability value for CS(=O)(=O)c1ccc(-c2cnc(N)c(C(=O)Nc3ccccc3)n2)cc1 : 95.1

// cell viability value for CC(CN1c2ccccc2Sc2ccccc21)N(C)C (centres undefined) : 107

// cell viability value for OC[C@H]1O[C@H](O[C@H]2O[C@H](CO)[C@@H](O)[C@H](O)[C@H]2O)[C@H](O)[C@@H](O)[C@@H]1O : 97.7

// cell viability value for C[N+](C)(C)CCCCCCCCCC[N+](C)(C)C : 99.9

// cell viability value for CN1C/C=C/CCOc2cccc(c2)-c2ccnc(n2)Nc2cccc(c2)C1 : 28.4

// cell viability value for COc1cccc(OC)c1-c1cc(C(=O)N[C@@H](CC(C)C)C(=O)O)nn1-c1ccnc2cc(Cl)ccc12 : 91.7

// cell viability value for CC(C)n1nnc2cc(C(=O)O)ccc21 : 106

// cell viability value for Clc1cccc(Cl)c1CSc1nnc(-c2cnccn2)s1 : 92.6

// cell viability value for CN(C)CC[C@@H](c1ccc(Cl)cc1)c1ccccn1 : 98.8

// cell viability value for OC[C@H]1O[C@@H](O[C@@H]2[C@@H](CO)OC(O)(CO)[C@H]2O)[C@H](O)[C@@H](O)[C@H]1O (mixture of isomers) : 104

// cell viability value for COc1ccc2cc(C(C)C(=O)Oc3ccc(C(N)=S)cc3)ccc2c1 (centres undefined) : 89.6

// cell viability value for CC(=O)N[C@@H](Cc1c[nH]c2ccccc12)C(=O)OCc1cc(C(F)(F)F)cc(C(F)(F)F)c1 : 97.5

// cell viability value for CC(=O)Nc1ccc(O)cc1 : 98.2

// cell viability value for CC(=O)NCC(=O)N[C@H](CCC(=O)O)C(=O)O : 103

// cell viability value for CCC(=O)OCC(=O)[C@@]1(OC(=O)CC)[C@@H](C)C[C@H]2[C@@H]3CCC4=CC(=O)C=C[C@]4(C)[C@@]3(F)[C@@H](O)C[C@@]21C [BETAMETHASONE 17,21-DIPROPIONATE] : 111

// cell viability value for NC(=O)CN1C=CCC(C(N)=O)=C1 [caricotamide] : 97.7

// cell viability value for CN1C(=O)C[C@@H](C(=O)N[C@@H](Cc2c[nH]cn2)C(=O)N2CCC[C@H]2C(N)=O)NC1=O : 97.6
